AC50 values for the compounds below.
# Assay: Luminescence Cell-Based Dose Retest to Confirm Inhibitors of Cancer Stem Cells. [Related pubchem assays (depositor defined):AID2717, AID2721]
# Type: functional
# Experimental Conditions: Homo sapiens
Active and inactive are the calls of the source.
Reported Property: AC50

1. CC(C)C[C@H](N)c1nnc(S(=O)(=O)Cc2ccc(F)cc2)o1 = 4.78 µM (active)
2. CN1C(=O)/C(=C/c2cccc(Cl)c2)Sc2ccc(C(=O)NCc3cccnc3)cc21 = 1.63 µM (active)
3. Cc1ccc(CNc2nc(-c3cccs3)nc3ccccc23)cc1 = 7 µM (active)
4. Cc1cccc(NC(=S)N/N=C/c2ccc([N+](=O)[O-])s2)c1 = 1.84 µM (active)
5. Clc1cccc(CN2CCc3c([nH]c4ccccc34)C2)c1Cl = 4.83 µM (active)
6. O=S(=O)(c1cnc(Cl)c(Br)c1)N1CCc2ccccc21 = 12.1 µM (inconclusive)
7. COc1cccc(S(=O)(=O)NCc2ccc(C(=O)Nc3cccc(Cl)c3)cc2)c1 = 4.31 µM (active)

###

# Test System: Streptokinase A (Streptococcus pyogenes serotype M1)
# Sequence (P10520 whole entry): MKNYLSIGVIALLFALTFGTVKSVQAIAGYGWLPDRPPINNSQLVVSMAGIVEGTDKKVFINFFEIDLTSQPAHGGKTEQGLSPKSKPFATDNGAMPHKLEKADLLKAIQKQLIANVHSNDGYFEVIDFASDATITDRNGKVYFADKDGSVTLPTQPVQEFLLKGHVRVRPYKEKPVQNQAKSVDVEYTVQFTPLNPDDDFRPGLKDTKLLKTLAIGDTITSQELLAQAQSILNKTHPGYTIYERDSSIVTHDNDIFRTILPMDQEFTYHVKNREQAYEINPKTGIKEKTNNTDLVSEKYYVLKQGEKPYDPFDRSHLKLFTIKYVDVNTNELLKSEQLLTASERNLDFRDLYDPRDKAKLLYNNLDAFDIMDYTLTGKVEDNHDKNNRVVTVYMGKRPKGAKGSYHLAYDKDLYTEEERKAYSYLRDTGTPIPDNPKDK
# Assay: S. pyogenes streptokinase expression inhibitors, potency, dose response, plasminogen activation absorbance, OD405 (AID 1914);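 also: secreted streptokinase activity via plasminogen activation per viability signal from cell pellet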
# Type: functional, Streptococcus pyogenes M1 GAS
Activity calls are given as the source filed them.
Reported Property: EC50

1) CCCCCC(=O)NNC(=O)c1c(O)c2ccccc2n(CC)c1=O = > 50 µM (not active)
2) Clc1ccc(COn2c(-c3ccc(Cl)cc3)nc3ccccc32)cc1 = > 50 µM (not active)
3) CCOc1cccc(N(C(=O)c2ccco2)C(C(=O)NC2CCCC2)c2cccnc2)c1 (stereo not given) = > 150 µM (not active)
4) Cc1ccc(-c2cc([C@H]3[C@@H]4C=CCC[C@@]4(C)C(=O)N3Cc3ccccc3)ccc2F)cc1 = 4.92 µM (active)
5) CCc1ccc(C2C(C#N)=C(N)C(C#N)(C#N)C3=CCC(C(C)(C)C)CC32)cc1 (stereo not given) = 5.84 µM (active)

###

# Test System: High affinity choline transporter 1 (Homo sapiens)
# Sequence (Q9GZV3 whole entry): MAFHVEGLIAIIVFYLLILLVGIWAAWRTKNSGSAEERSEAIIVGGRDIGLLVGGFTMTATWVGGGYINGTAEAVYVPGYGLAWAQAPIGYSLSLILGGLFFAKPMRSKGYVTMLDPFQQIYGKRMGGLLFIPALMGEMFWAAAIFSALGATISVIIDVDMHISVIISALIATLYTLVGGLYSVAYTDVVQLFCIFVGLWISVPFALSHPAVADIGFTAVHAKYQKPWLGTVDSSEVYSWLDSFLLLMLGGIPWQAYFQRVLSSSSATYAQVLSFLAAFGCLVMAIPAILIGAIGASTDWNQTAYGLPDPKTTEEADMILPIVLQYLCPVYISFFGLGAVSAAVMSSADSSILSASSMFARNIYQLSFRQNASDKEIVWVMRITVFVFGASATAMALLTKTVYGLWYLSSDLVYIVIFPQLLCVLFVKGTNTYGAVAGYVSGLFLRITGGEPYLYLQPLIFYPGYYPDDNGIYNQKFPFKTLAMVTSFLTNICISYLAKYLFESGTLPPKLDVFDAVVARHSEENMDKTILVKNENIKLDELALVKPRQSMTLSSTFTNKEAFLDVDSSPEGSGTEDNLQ
# Assay: CHT inhibitors, dose response, cell-based, 10-point CRC, membrane potential dye (AID 588401);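 also: membrane potential dye fluorescence of choline-evoked depolarization via CHT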
# Format: functional
Activity calls are given as the source filed them.
Reported Property: IC50

1) N#Cc1c(N)nc(SCc2ccccn2)c(C#N)c1-c1cccs1 = 0.0829 µM (active)
2) Cc1cccc(N2CCN(C(=O)CCCn3c(=O)[nH]c4ccsc4c3=O)CC2C)c1 (stereo not given) = 8.43 µM (active)
3) Cc1nccn1C[C@@H]1CCc2c(c3ccccc3n2C)C1=O [(S)-ONDANSETRON] = 1.12 µM (active)
4) O=c1c2ccccc2[nH]c(=S)n1CCN1CCCC1 = 4.01 µM (active)
5) COc1ccc(C(=O)NC(C)Cc2cnccn2)cc1OC1CCN(C(C)C)CC1 (stereo not given) = 4.47 µM (active)

###

IC50 values for the molecules below.
# Test System: Glyceraldehyde-3-phosphate dehydrogenase (Homo sapiens, UniProt P04406)
# Sequence (P04406 whole entry): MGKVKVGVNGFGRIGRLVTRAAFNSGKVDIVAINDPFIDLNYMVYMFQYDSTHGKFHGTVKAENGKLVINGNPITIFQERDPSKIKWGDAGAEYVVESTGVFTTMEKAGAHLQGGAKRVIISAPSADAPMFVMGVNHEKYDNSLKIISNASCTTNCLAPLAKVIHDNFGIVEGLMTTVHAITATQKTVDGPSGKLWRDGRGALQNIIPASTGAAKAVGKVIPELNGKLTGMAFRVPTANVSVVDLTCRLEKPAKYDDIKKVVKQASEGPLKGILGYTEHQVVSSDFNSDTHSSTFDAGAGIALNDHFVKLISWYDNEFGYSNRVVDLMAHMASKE
Active and inactive are the calls of the source.
Reported Property: IC50

1. Cc1c(C(=O)O)nnn1-c1ccc(F)cc1 = > 100 µM (not active)
2. Cc1ccc2c(c1)C1C=CCC1C(C(=O)O)N2 (stereo unspecified) = 70.7 µM (active)
3. O=C1C(Cl)=C(N2CCOCC2)C(=O)N1c1ccc([N+](=O)[O-])cc1 = > 100 µM (not active)
4. COc1ccc(CCc2nc(N)nn2-c2ccccc2)cc1OC = > 100 µM (not active)
5. O=C1C(Cl)=C(N2CCN(c3ncccn3)CC2)C(=O)N1c1ccnc(Cl)c1 = > 50 µM (inconclusive)
6. CCOC(=O)C1Nc2c(OC)cccc2C2OCCCC12 (stereo unspecified) = > 100 µM (not active)

###

# Assay: microbe, parasite or virus in culture
# Assay type: functional
# Experimental Conditions: Mycobacterium tuberculosis
Activity calls are given as the source filed them.
Reported Property: CC50

1) CCCCn1c(-c2ccc(C(C)(C)C)cc2)nc2cc3nc(O)c(C(C)C)nc3cc21 = 32.7 µM (active)
2) CN1CCN(CC/C=C2/c3ccccc3Sc3ccc(S(=O)(=O)N(C)C)cc32)CC1 = > 40 µM (active)
3) CC1CCC(NC(=O)c2cc3c(s2)CCCC3)CC1 (centres undefined) = > 40 µM (active)
4) Cc1ccc(C(c2nnnn2Cc2cccs2)N2CCN(Cc3ccc4c(c3)OCO4)CC2)cc1 (centres undefined) = > 40 µM (active)

###

EC50 values for the compounds below.
# Test System: Protein RecA (Mycobacterium tuberculosis, UniProt P9WHJ3)
# Assay: Fluorescence Cell-Free Homogeneous Dose Retest to Identify Inhibitors of RecA-Intein Splicing Activity. [Related pubchem assays (depositor defined):AID2097, AID2223, AID489010, AID492950]
# Assay type: functional
Active and inactive are the calls of the source.
Reported Property: EC50

1) CC(=O)N(C1=C(N2CCOCC2)C(=O)c2ccccc2C1=O)c1ccc(C(=O)O)cc1 = 1.01 µM (active)
2) CSc1nnc(NC(=O)c2nc(S(=O)(=O)Cc3ccccc3)ncc2Cl)s1 = 4.73 µM (active)
3) CCNC1=C(Cl)C(=O)c2ccccc2C1=O = 20 µM (active)
4) O=c1c2ccccc2nc(/C=C/c2cccnc2)n1CCc1ccccc1 = 12 µM (active)
5) COc1ccc(C2NC(=O)NC3=C2CCc2ccccc23)cc1 (stereo unspecified) = 4.7 µM (active)
6) CC(C)C[C@H](N)c1nnc(S(=O)(=O)Cc2ccc(F)cc2)o1 = 25.7 µM (active)
7) CCCc1n[nH]c2c1C(c1ccncc1)C(C#N)=C(N)O2 (stereo unspecified) = 17.6 µM (active)
8) CCCCCCCCc1c(O)nc(-n2[nH]c(C)c(CCO)c2=O)[nH]c1=O = 96.8 µM (active)
9) CCc1ccc(C2C(C#N)=C(N)C(C#N)(C#N)C3=CCC(C(C)(C)C)CC32)cc1 (stereo unspecified) = 3 µM (active)
10) Cc1cc(=O)n(CCCc2ccccc2)[nH]1 = 2.23 µM (active)
11) Cc1cc(-c2[nH]nc3c2C(c2ccsc2)C(C#N)=C(N)O3)c(C)s1 (stereo unspecified) = 1.2 µM (active)

###

# Test System: High affinity choline transporter 1 (Homo sapiens, UniProt Q9GZV3)
# Sequence (Q9GZV3 whole entry): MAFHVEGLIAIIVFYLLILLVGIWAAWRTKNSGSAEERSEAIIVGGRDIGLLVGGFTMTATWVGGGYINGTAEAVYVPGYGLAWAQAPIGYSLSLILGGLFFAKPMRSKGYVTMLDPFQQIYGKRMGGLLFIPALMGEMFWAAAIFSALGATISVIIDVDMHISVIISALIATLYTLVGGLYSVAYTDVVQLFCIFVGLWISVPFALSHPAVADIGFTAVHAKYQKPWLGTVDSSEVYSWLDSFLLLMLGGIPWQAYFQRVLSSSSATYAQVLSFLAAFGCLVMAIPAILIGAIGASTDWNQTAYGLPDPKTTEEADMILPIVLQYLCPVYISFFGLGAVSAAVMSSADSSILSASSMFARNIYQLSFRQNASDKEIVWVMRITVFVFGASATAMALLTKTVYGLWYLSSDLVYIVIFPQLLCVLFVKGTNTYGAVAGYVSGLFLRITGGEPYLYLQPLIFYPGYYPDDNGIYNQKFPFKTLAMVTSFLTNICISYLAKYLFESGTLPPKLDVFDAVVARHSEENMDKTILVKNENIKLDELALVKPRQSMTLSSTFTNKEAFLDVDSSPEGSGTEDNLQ
# Assay: CHT inhibitors, dose response, cell-based, 5-point CRC, membrane potential dye (AID 504840)
# Format: functional
The source made the active and inactive calls.
IC50 values for the compounds below.
Reported Property: IC50

1) COc1ccc(CCN(C)C(=O)c2ccc(COc3ccccc3)o2)cc1OC = 13.8 µM (active)
2) COc1ccc(C(=O)NC(C)Cc2cnccn2)cc1OC1CCN(C(C)C)CC1 (centres undefined) = 9.9 µM (active)
3) Cc1nccn1C[C@@H]1CCc2c(c3ccccc3n2C)C1=O [(S)-ONDANSETRON] = 0.0214 µM (active)
4) CC(C)c1nc(C(=O)N2CCCC(N3CCN(c4cccc(Cl)c4)CC3)C2)cs1 (centres undefined) = 13.2 µM (active)
5) CCOC(=O)c1cccc(NC(=O)CSc2nnc(C)n2Cc2ccccc2)c1 = 0.794 µM (active)
6) CCCCn1nc2cc(C(=O)NCCc3cccs3)ccc2c1OCC = 11.8 µM (active)
7) N#Cc1c(N)nc(SCc2ccccn2)c(C#N)c1-c1cccs1 = 0.158 µM (active)
8) O=c1c2ccccc2[nH]c(=S)n1CCN1CCCC1 = 8.33 µM (active)
9) Cc1cccc(N2CCN(C(=O)CCCn3c(=O)[nH]c4ccsc4c3=O)CC2C)c1 (centres undefined) = 9.39 µM (active)
